Parameter: BINDING ASSAY SIGNAL. Scope: all listed entries.
Target: T1, human plasma Kallikrein (human, UniProt P03952 20-638)
T1 construct: also called hPK; human PK
T1 sequence (P03952 20-638 limits assumed): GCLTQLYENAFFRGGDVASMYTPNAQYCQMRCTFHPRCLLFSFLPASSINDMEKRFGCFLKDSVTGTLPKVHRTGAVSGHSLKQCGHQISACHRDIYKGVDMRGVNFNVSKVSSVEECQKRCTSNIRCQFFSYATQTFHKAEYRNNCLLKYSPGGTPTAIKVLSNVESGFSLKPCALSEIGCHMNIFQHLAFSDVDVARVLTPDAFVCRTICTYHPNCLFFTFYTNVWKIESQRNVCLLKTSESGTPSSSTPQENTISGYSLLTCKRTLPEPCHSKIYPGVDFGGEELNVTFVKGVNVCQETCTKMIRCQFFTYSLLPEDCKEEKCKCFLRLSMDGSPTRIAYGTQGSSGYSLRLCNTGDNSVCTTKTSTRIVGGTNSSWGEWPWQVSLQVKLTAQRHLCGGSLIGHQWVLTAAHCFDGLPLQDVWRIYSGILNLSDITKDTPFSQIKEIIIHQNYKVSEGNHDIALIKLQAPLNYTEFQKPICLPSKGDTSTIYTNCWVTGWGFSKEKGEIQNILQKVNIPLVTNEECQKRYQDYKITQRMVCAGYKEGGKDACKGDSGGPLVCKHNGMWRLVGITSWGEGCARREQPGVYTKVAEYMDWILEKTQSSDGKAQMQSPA
Assay: phage binding assay
Numbered stars: 1 amine (or outer) side, 2 acyl side, 3 side chain; on linkers, the order of the positions; unused ones are H or OH. Bridge positions count the residues as written; N and C are the ends. Ends that are not written are not given here. TBMB = c1c(C[*:1])cc(C[*:3])cc1C[*:2]
Form: value (number only, do not type unit).

// solved cases for BINDING ASSAY SIGNAL follow
| binder | BINDING ASSAY SIGNAL |
| --- | --- |
| CHWPARCTHQDLC (linker 1-7-13 via TBMB, on phage) | 110 |
| CTWPARCTHTDMC (linker 1-7-13 via TBMB, on phage) | 67 |
| CSWPARCTHSHLC (linker 1-7-13 via TBMB, on phage) | 72 |
| CSWPARCVHQDMC (linker 1-7-13 via TBMB, on phage) | 61 |
| CTWPARCTHADLC (linker 1-7-13 via TBMB, on phage) | 71 |
| CTWPARCLHQHMC (linker 1-7-13 via TBMB, on phage) | 61 |
| CLWPARCTHQDLC (linker 1-7-13 via TBMB, on phage) | 90 |
| CSWPARCLHTELC (linker 1-7-13 via TBMB, on phage) | 68 |
| CRWPARCTHTDLC (linker 1-7-13 via TBMB (inferred), on phage) | 59 |
| CSWPARCTHTELC (linker 1-7-13 via TBMB, on phage) | 69 |

Pending binder:
INPUT: So what's the measured BINDING ASSAY SIGNAL for this one? CSWPARCTHQDLC (linker 1-7-13 via TBMB, on phage)
OUTPUT: 110
